All figures here come from patent US11639355B2.

Assay: Two-way permeability evaluation in Caco-2 cells
Format: in vitro ADME
Settings: human, Caco-2, pH 7.4, Caco-2; read-out: Average recovery rate A→B
MEASUREMENT TYPE: recovery at 2.5 h, 2 μM

Return reported recovery at 2.5 h, 2 μM; argument: `COc1ncc(-c2nc3c(n2C(C)C)[C@H](c2ccc(Cl)cc2)N(c2cc(Cl)cn(C)c2=O)C3=O)c(OC)n1`
94.3%

----------
Assay: Two-way permeability evaluation in Caco-2 cells
Assay type: in vitro ADME
Conditions: human, Caco-2, pH 7.4, Caco-2; read-out: Average recovery rate B→A
MEASUREMENT TYPE: recovery at 2.5 h, 2 μM (%)
Hi! Could you send only the number? It should be in %, unit omitted.

Return reported recovery at 2.5 h, 2 μM; argument: `COc1ncc(-c2nc3c(n2C(C)C)[C@H](c2ccc(Cl)cc2)N(c2cc(Cl)cn(C)c2=O)C3=O)c(OC)n1`
88.3

----------
System: P-glycoprotein (MDR1), human
Assay: Two-way permeability evaluation in MDR1-MDCK cells
Type: in vitro ADME
Conditions: dog; MDR1-MDCK, 2 μM, pH 7.4, 2.5 hours
MEASUREMENT TYPE: Papp A→B at 2.5 h, 2 μM (×10⁻⁶ cm/s)
Hi! Could you send only the number? It should be in ×10⁻⁶ cm/s, unit omitted.

Return reported Papp A→B at 2.5 h, 2 μM; argument: `COc1ncc(-c2nc3c(n2C(C)C)[C@H](c2ccc(Cl)cc2)N(c2cc(Cl)cn(C)c2=O)C3=O)c(OC)n1`
0.91

----------
Tested on: P-glycoprotein (MDR1)
Test: Two-way permeability evaluation in MDR1-MDCK cells
Type: in vitro ADME
Details: dog, MDCK-MDR1, pH 7.4, MDR1-MDCK; read-out: Average recovery rate B→A
Source text: Experiment purpose: To determine the permeability of the test compounds in MDR1-MDCK cells Experiment operation: MDR1-MDCK cells that permanently express human P-glycoprotein were inoculated on a 96-well Insert cell plate, and cultured for 4-7 days to form confluent monolayer cells. […] In addition, the cells were lysed with the cold acetonitrile solution containing the internal standard to measure the accumulation amount of intracellular compounds. […]
MEASUREMENT TYPE: recovery at 2.5 h, 2 μM (%)
Hi! Could you send only the number? It should be in %, unit omitted.

Return reported recovery at 2.5 h, 2 μM; argument: COc1ncc(-c2nc3c(n2C(C)C)[C@H](c2ccc(Cl)cc2)N(c2cc(Cl)cn(C)c2=O)C3=O)c(OC)n1 [NVP-HDM201]
50

----------
Assay: Two-way permeability evaluation in Caco-2 cells
Type: in vitro ADME
Conditions: human; Caco-2, 2 μM, pH 7.4, 2.5 hours
MEASUREMENT TYPE: Papp B→A at 2.5 h, 2 μM (×10⁻⁶ cm/s)
Hi! Could you send only the number? It should be in ×10⁻⁶ cm/s, unit omitted.

Return reported Papp B→A at 2.5 h, 2 μM; argument: COc1ncc(-c2nc3c(n2C(C)C)[C@H](c2ccc(Cl)cc2)N(c2cc(Cl)cn(C)c2=O)C3=O)c(OC)n1 [NVP-HDM201]
34.3

----------
Test: Two-way permeability evaluation in Caco-2 cells
Assay type: in vitro ADME
Details: human; Caco-2, 2 μM, pH 7.4, 2.5 hours
MEASUREMENT TYPE: Papp A→B at 2.5 h, 2 μM (×10⁻⁶ cm/s)
Hi! Could you send only the number? It should be in ×10⁻⁶ cm/s, unit omitted.

Return reported Papp A→B at 2.5 h, 2 μM; argument: `COc1ncc(-c2nc3c(n2C(C)C)[C@H](c2ccc(Cl)cc2)N(c2cc(Cl)cn(C)c2=O)C3=O)c(OC)n1`
0.17

----------
Assay: Pharmacokinetic study in mice, tail vein injection and oral cassette dosing
Assay type: in vivo
Details: mouse, plasma, 2 mg/kg; female Balb/c mice, iv 0.5 mpk, oral 2 mpk; read-out: Oral bioavailability F
MEASUREMENT TYPE: bioavailability (%)
Hi! Could you send only the number? It should be in %, unit omitted.

Return reported bioavailability; argument: COc1ncc(-c2nc3c(n2C(C)C)[C@H](c2ccc(Cl)cc2)N(c2cc(Cl)cn(C)c2=O)C3=O)c(OC)n1 [NVP-HDM201]
39.6

----------
Experiment: Two-way permeability evaluation in Caco-2 cells
Format: in vitro ADME
Details: human, Caco-2, pH 7.4
MEASUREMENT TYPE: efflux ratio at 2.5 h, 2 μM
Format: numeric value only, no unit, no commentary.

Return reported efflux ratio at 2.5 h, 2 μM; argument: `COc1ncc(-c2nc3c(n2C(C)C)[C@H](c2ccc(Cl)cc2)N(c2cc(Cl)cn(C)c2=O)C3=O)c(OC)n1`
198
